assay-remarks: Metabolic stability in bovine liver microsomes assessed as compound recovery at 25 uM after 30 mins in presence of beta-NADPH by HPLC method
Type: ADME, Bos taurus, microsome
condition-info: cattle, read-out: Drug recovery
readout: remaining at 0.5 h, 25 µM (%)

compound=CCCCCCCCCCCCCCCCc1nc(OC2CCC2)nc(N2CCC2)c1O readout="remaining at 0.5 h, 25 µM" reported_value=63
compound=CCCCCCCCCCCCCCc1nc(N2CCC2)nc(N2CCC2)c1O readout="remaining at 0.5 h, 25 µM" reported_value=63
compound=CCCCCCCCCCCCCCc1nc(N2CCC2)nc(OC2CCC2)c1O readout="remaining at 0.5 h, 25 µM" reported_value=63
compound="COC1=C(OC)C(=O)C(CCCCCCCCCCO)=C(C)C1=O [IDEBENONE]" readout="remaining at 0.5 h, 25 µM" reported_value=61
compound=CCCCCCCCCCCCCCCCc1nc(N2CCC2)nc(N2CCC2)c1O readout="remaining at 0.5 h, 25 µM" reported_value=62
compound=CCCCCCCCCCCCCCc1nc(OC2CCC2)nc(N2CCC2)c1O readout="remaining at 0.5 h, 25 µM" reported_value=77
compound=CCCCCCCCCCCCCCc1nc(OC2CCC2)nc(OC2CCC2)c1O readout="remaining at 0.5 h, 25 µM" reported_value=72
compound=CCCCCCCCCCCCCCCCc1nc(OC2CCC2)nc(OC2CCC2)c1O readout="remaining at 0.5 h, 25 µM" reported_value=60
